- Tested on: GRK2;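 note: KINOMEscan kinase panel screen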
- Construct: gene ADRBK1
- condition-description: concentration: 1 μM, replicates: in singlicate; n = 1
parameter: %Inh (%)
Express the result in % but write the number alone.

Query (molecule): Cl.Oc1cccc(Nc2ccnc3cc(-c4ccncc4)ccc23)c1 [GW494601] ; field requested: %Inh
0

Query (molecule): COc1ccc(CNC(=O)NC2CCN(c3ccnc(Nc4ccc(OC)cc4)n3)C2)cc1 (stereo not shown) [GSK1379727] ; field requested: %Inh
0

Query (molecule): Nc1nc(-c2ccc3c(N)n[nH]c3c2)cc(N2CCCC2)n1 [GSK2227430] ; field requested: %Inh
0

Query (molecule): Cc1ccc(NC(=O)c2ccnc(N3CCN(C)CC3)c2)cc1-c1ccc(C(=O)NCC2CC2)cc1 [GW775604] ; field requested: %Inh
0

Query (molecule): O=C1Cc2cc(Nc3nc(NCc4cccc(S(=O)(=O)C(F)(F)F)c4)ncc3C(F)(F)F)ccc2N1 ; field requested: %Inh
30

Query (molecule): Fc1ccc(-c2nn3c(OCC(F)(F)F)cccc3c2-c2ccncc2)cc1 [GW514784] ; field requested: %Inh
0

Query (molecule): CN(C1=C(c2ccccc2)C(=O)NC1=O)c1ccccc1 [SB-334860] ; field requested: %Inh
8

Query (molecule): c1ccc(-c2cc(-c3c[nH]nc3-c3ccccn3)ccn2)cc1 [GW576604] ; field requested: %Inh
0

Query (molecule): NS(=O)(=O)CCc1cccc(Nc2nccc(-c3c(-c4cccc(NC(=O)c5c(F)cccc5F)c4)nn4ccccc34)n2)c1 [GSK336735] ; field requested: %Inh
0

Query (molecule): CCCCCc1nc2c(N)ncnc2n1CCCCC [SKF-97255] ; field requested: %Inh
0

Query (molecule): O=C(Nc1cccc(-c2nn3ncccc3c2-c2ccnc(Nc3cccc(C(F)(F)F)c3)n2)c1)c1c(F)cccc1F [GSK299495] ; field requested: %Inh
0

Query (molecule): Cc1c2ccc(N(C)c3ccnc(Nc4cccc(S(N)(=O)=O)c4)n3)cc2nn1Cc1ccccc1.Cl.Cl [GW787226] ; field requested: %Inh
0

Query (molecule): CC(C)(C)n1cnc2c(N)ncnc21 [SKF-97359] ; field requested: %Inh
39

Hello, the source for this data is paper PMC5540273, in case you need it.
